Data origin: patent US20230295145A1

- TARGET OF ASSAY: VHL (Homo sapiens, UniProt P40337)
- Construct: expressed in transfected cells
- Sequence (P40337 whole entry): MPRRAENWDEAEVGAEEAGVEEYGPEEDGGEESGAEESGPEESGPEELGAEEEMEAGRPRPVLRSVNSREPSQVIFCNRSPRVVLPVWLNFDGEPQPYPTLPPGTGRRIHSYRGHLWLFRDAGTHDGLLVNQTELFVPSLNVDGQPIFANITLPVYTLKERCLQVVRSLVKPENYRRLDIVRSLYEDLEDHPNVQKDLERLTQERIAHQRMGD
- ASSAY NOTES: VHL HEK-293 BRET Assay (VHL NanoBRET Target Engagement Assay)
- Assay type: cell-based
- CONDITION LABEL: IC50 values measured in the presence of digitonin; HEK 293 RT VHL-NanoLuc stable cells; read-out: IC50 + Digi (μM)*
READOUT KIND: IC50 (µM)

// worked examples, IC50 included
> print(dat)
                                    molecule  value.reported
 1  CC(Cc1ccc(Br)cc1F)NC(=O)[C@@H]1C[C@@H](O)CN1C(=O)[C@@H](n1cc(C2CC2)nn1)C(C)(C)C (stereo partly shown)            2.52
 2  CC(C)(NC(=O)[C@@H]1C[C@@H](O)CN1C(=O)[C@@H](n1cc(C2CC2)nn1)C(C)(C)C)C(=O)Nc1ccccc1            6.66
 3  CC(C)(C)[C@@H](C(=O)N1C[C@H](O)C[C@H]1C(=O)NC(CO)c1ccc(Br)c(F)c1)n1cc(C2CC2)nn1 (stereo partly shown)          0.0152
 4  CC(C)(C)[C@@H](C(=O)N1C[C@H](O)C[C@H]1C(=O)NCCCn1cnc2c(N)ncnc21)n1cc(C2CC2)nn1            2.33
 5  CNC(=O)[C@@H]1C[C@@H](O)CN1C(=O)[C@@H](n1cc(Cn2cnc3cc(C)c(C)cc32)nn1)C(C)(C)C               3
 6  CCC(CNC(=O)[C@@H]1C[C@@H](O)CN1C(=O)[C@@H](n1cc(C2CC2)nn1)C(C)(C)C)Oc1cccc(C(F)(F)F)c1 (stereo partly shown)            5.56
 7  CC(C)(C)[C@@H](C(=O)N1C[C@H](O)C[C@H]1C(=O)NC1CC12CCc1cc(Br)ccc12)n1cc(C2CC2)nn1 (stereo partly shown)             9.5
 8  CC(C)(C)[C@@H](C(=O)N1C[C@H](O)C[C@H]1C(=O)NCc1ncc(-c2ccccc2)s1)n1cc(C2CC2)nn1          0.0142
 9  Cc1ccc(N2CCC[C@H]2CNC(=O)[C@@H]2C[C@@H](O)CN2C(=O)[C@@H](n2cc(C3CC3)nn2)C(C)(C)C)cc1            5.35
10  CC(C)(C)[C@@H](C(=O)N1C[C@H](O)C[C@H]1C(=O)NC1CN(c2ccncc2)C1)n1cc(C2CC2)nn1            22.3

A = Cc1ncsc1-c1ccc(CNC(=O)[C@@H]2C[C@@H](O)CN2C(=O)[C@@H](n2cc(C3CC3)nn2)C(C)(C)C)cc1
B = CNC(=O)C1CC(O)CN1C(=O)[C@@H](n1cc(C2CCC(C(=O)OC)CC2)nn1)C(C)(C)C (stereo in doubt)
Req: Between the entries labelled A and B , which has a larger IC50 value on record? Identify your pick by its label.
Resp: B
(B: 5.86 µM, A: 0.0132 µM)
